Tested on: Escherichia coli TOP10;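 note: peptides expressed intracellularly from a pBAD plasmid library in pooled LB shake-flask culture, induced with 0.3% L-arabinose, DNA abundance read by NGS, three biological replicates, DESeq2 with apeglm shrinkage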
Assay Remarks: shrunken log2 fold change of peptide-encoding DNA abundance (4.5 h post-induction vs induction); higher = less antimicrobial activity (less host growth inhibition)
Experimental Parameters: time post-induction: 4.5 h; library: site-saturation at positions 5, 18, 19, 20
Measured Quantity: shrunken log2 fold change
Give the figure only, with no unit attached.

Observe how each entry below is paired with its result.
{"Biopolymer Sequence": "RRIRIRPPRLPRPRPRPAYPPRP", "Study Target": "Escherichia coli TOP10", "shrunken log2 fold change": -0.829}
{"Biopolymer Sequence": "RRIRWRPPRLPRPRPRPLSWPRP", "Study Target": "Escherichia coli TOP10", "shrunken log2 fold change": 0.0993}
{"Biopolymer Sequence": "RRIRMRPPRLPRPRPRPYCLPRP", "Study Target": "Escherichia coli TOP10", "shrunken log2 fold change": 0.146}
{"Biopolymer Sequence": "RRIRKRPPRLPRPRPRPPPAPRP", "Study Target": "Escherichia coli TOP10", "shrunken log2 fold change": 1.29}
{"Biopolymer Sequence": "RRIRGRPPRLPRPRPRPHATPRP", "Study Target": "Escherichia coli TOP10", "shrunken log2 fold change": 1.35}

INPUT: Please report the recorded shrunken log2 fold change for RRIRLRPPRLPRPRPRPAKNPRP .
OUTPUT: 0.00752

INPUT: Reported shrunken log2 fold change for RRIRNRPPRLPRPRPRPCHVPRP : what is it?
OUTPUT: 0.0112
